- MEASURED_ON: T1, human IL-2Rβ (human, UniProt P14784 27-240, limits assumed)
- T1 construct: Recombinant protein, coated (ELISA) or immobilised on CM5 (SPR); also called hu IL-2R; interleukin 2 receptor β-chain
- T1 sequence: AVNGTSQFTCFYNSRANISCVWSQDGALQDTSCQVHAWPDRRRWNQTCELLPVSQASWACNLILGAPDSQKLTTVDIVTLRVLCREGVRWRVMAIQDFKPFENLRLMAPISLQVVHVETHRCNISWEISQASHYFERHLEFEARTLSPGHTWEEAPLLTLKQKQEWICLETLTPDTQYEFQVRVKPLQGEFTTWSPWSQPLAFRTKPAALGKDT
- EXPERIMENT_NOTES: SPR (Biacore), P.E. off-rate ranking
Threshold-based label: koff under 0.0005 s⁻¹ gives condition met, koff not under 0.0005 s⁻¹ gives condition not met.

These solved cases illustrate the format of a correct answer.
[
  {
    "BINDER": "FJ1427_P035MP03G05 (VHH, soluble VHH in periplasmic extract; also called clone nr) VHH: EVQLVESGGGLVQIGGSLRLSCAASGRTFSSITMAYFRQVPGKEREWVAGINFSGTRTFYADSVKGRFLISRDDAKSTMYLQMNSLKPEDTAVYYCAASPRGFYGPGNALYDYWGQGTQVTVSS",
    "LABEL": "condition met"
  },
  {
    "BINDER": "FJ1427_P035MP03A09 (VHH, soluble VHH in periplasmic extract; also called clone nr) VHH: QVQLVESGGGLVQAGGSLRLACAASGRTFSTLTMGWFRQAPGKEREFVAGISPSGGYAWHADSVKGRFTIDRDNAKNTVYLQTRSLRPEDTAVYYCAADHPPYGAVASRSEYEYDDWGPGTRVTVSS",
    "LABEL": "condition met"
  },
  {
    "BINDER": "FJ1427 P035MP03C10 (VHH, soluble VHH in periplasmic extract; also called clone nr) VHH: QVQLVESGGGLVQAGGSLRLSCAASGRTFSTTEMGWFRQAPGKEREFVAAITWTGRGTMYAESVEGRFTISRENAKNMVYLQMNSLKPEDTAIYYCAAARRGRAAVRSEGGYDFWGQGTQVTVSS",
    "LABEL": "condition met"
  },
  {
    "BINDER": "FJ1427 P035MP03H05 (VHH, soluble VHH in periplasmic extract; also called clone nr) VHH: QLQLVESGGGLVQAGGSLALSCAASGGTFSSYAMGWFRQAPGKEREFVAATTRGGGRTMYAVSTEGRFSCSRDNAKNTVYLLIKNLKPEDTAVYYCAARTSYYDGTYYPASSDFDIWGQGTQVTVSS",
    "LABEL": "condition not met"
  },
  {
    "BINDER": "FJ1427_P035MP03E03 (VHH, soluble VHH in periplasmic extract; also called clone nr) VHH: QVQLVESGGGLVQPGGSLRLSCAVSGGTLHDYGIGWIRQAPGKQREGVSCMSRSDDKTYYADYVKGRFTISKDNAKNTVYLQMISLKPEDTAVYYCAAVDAYGCSLVQPTTYDYWGQGTQVTVSS",
    "LABEL": "condition not met"
  },
  {
    "BINDER": "FJ1427 P035MP06C02 (VHH, soluble VHH in periplasmic extract; also called clone nr) VHH: QVQLVESGGGLVQAGGSLRLSCVVSGDVFVRYTMAWFRQAPGKEREFVAVVTDSGRTTEYVDSVKGRFTVSRDNAKNTVYLQMNNLKPEDTAVYYCAANTDYFQIRSVDNNAWGQGTQVTVSS",
    "LABEL": "condition met"
  },
  {
    "BINDER": "FJ1427 P035MP03C02 (VHH, soluble VHH in periplasmic extract; also called clone nr) VHH: QVQLVESGGGLVQVGDSLRLSCAASGRTVGSANMGWFRQAPGKEREFVAVITWSTGSTVYADSVKGRFTISRDNAKNTVYLDMSSLKPEDTAVYYCAADVYPYSGNLNIMDYWGKGTLVTVSS",
    "LABEL": "condition not met"
  }
]

Given the entry FJ1427_P035MP02F11 (VHH, soluble VHH in periplasmic extract; also called clone nr) VHH: EVQLVESGGGLVQAGGSLRLSCAASGRDFSSYAMGWFRQAPGKEREFVVAITWTKRSTDFPDSVKGRFTISRDNAKNTVYLDMNSLKPEDTAVYYCASARGLPVTPLGDIIYWGEGTLVTVSS , would its reported koff be below 0.0005 s⁻¹? condition not met
